Cited source for all entries: paper PMC8765048

- System: SARS-CoV-2 B.1.429 (Epsilon)
- Assay Protocol: microbe, parasite or virus in culture
- Format: cell-based
- Run Conditions: Severe acute respiratory syndrome coronavirus 2, Calu-3, 24 h
Measurement Type: IC50 (nM)
Write the answer as a number in nM, unit excluded.

| Compound | Measurement Type | Recorded Measurement |
| --- | --- | --- |
| NC(=O)c1cn([C@@H]2O[C@H](CO)[C@@H](O)[C@H]2O)c2ncnc(N)c12 | IC50 | 71.1 |

Now consider a different compound.
Documented IC50 of CCC(CC)COC(=O)[C@H](C)N[P@](=O)(OC[C@H]1O[C@@](C#N)(c2ccc3c(N)ncnn23)[C@H](O)[C@@H]1O)Oc1ccccc1 [Remdesivir, remdesivir, reference compound] : 2800
